Reference source for all entries: ChEMBL document CHEMBL3608253

experiment: Selectivity ratio of IC50 for chinese hamster V79 cells to IC50 for human HL60 cells; format: ADME, cell-based, HL-60; details: V79 cells versus HL60 cells, read-out: Ratio IC50
measured_parameter: selectivity ratio
Answers are plain numbers.

A selection of reference data follows.
compound="CC1(C)OC2=C(CC1Sc1cccc(Cl)c1)C(=O)C(=O)c1ccccc12 (centres undefined)" result_value=2
compound="CCSC1CC2=C(OC1(C)C)c1ccccc1C(=O)C2=O (centres undefined)" result_value=1.4
compound="CC1(C)OC2=C(CC1[Se]c1cccc(C(F)(F)F)c1)C(=O)C(=O)c1ccccc12 (centres undefined)" result_value=5.8

// next entry
Sure, the documented selectivity ratio for CC1(C)OC2=C(CC1[Se]c1ccc(Br)cc1)C(=O)C(=O)c1ccccc12 (centres undefined) is 2.4
